Cited source for all entries: patent US10239880B2

# maps each entry to its IC50
Target: EGFR (Homo sapiens, UniProt P00533)
Sequence (P00533 25-1210, species assumed): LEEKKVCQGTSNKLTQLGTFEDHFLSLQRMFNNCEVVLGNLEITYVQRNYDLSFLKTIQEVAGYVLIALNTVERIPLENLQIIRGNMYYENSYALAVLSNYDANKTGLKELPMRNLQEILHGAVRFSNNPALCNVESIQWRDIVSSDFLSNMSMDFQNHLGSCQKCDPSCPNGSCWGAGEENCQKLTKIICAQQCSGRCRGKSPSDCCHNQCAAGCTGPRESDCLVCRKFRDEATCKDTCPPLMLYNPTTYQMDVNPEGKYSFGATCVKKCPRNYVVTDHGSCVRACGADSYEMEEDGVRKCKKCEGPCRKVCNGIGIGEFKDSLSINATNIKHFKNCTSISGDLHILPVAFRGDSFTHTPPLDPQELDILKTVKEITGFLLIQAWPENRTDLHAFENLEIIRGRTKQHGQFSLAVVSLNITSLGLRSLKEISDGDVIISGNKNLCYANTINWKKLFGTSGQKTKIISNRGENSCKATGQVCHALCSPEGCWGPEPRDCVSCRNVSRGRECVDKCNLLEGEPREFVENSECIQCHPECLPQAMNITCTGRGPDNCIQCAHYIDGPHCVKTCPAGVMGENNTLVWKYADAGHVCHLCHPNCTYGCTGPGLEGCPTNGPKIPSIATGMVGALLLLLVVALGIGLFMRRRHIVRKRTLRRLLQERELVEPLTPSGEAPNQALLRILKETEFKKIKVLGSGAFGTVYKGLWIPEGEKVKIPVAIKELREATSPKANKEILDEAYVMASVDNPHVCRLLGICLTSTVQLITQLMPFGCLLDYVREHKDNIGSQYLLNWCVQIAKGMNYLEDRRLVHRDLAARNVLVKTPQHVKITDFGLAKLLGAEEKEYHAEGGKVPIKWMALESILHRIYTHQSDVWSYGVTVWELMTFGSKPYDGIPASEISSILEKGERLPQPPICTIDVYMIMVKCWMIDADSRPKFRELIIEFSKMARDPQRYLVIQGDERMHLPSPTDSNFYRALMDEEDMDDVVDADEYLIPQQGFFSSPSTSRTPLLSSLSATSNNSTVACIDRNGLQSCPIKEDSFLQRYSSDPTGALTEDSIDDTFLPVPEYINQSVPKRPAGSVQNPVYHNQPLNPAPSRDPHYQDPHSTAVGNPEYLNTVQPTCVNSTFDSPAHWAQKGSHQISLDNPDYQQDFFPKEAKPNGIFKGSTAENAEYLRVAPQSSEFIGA
Test: Kinase inhibition, whole-cell assay, EGFR
Type: cell-based
Conditions: Table 3b; unit inferred; read-out: EGFR kinase inhibition
Counter-ions that a name gives are not always drawn.
Answer format: numeric, nM implied, no suffix.

Lab book: IC50 of CSc1ccc(N(C)c2nc(C)nc3ccn(C)c23)cc1 noted as 54.8

Note to self: IC50 recorded for COc1ccc2c(c1)CCCN2c1nc(Cl)nc2ccn(C)c12 was 9

Next:
IC50 reading for COc1ccc(N(C)c2nc(Cl)nc3ccn(C)c23)cc1 : 6.3

IC50 reading for COc1ccc(N(C)c2nc(C)nc3ccn(C)c23)cc1 [2•HCl] : 89.3

The reported value for CSc1ccc(N(C)c2nc(Cl)nc3ccn(C)c23)cc1 in terms of IC50 is 16.4

---

System: MDA-MB-435 cancer cells
Assay: Antiproliferative effect in MDA-MB-435 cancer cells (SRB assay)
Format: cell-based
Conditions: Homo sapiens; Table 3a; cells that print nM; read-out: IC50 ± SD in MDA-435 Cells
READOUT KIND: IC50 (nM)
The response must be a number in nM with no trailing unit.

Kindly note the recorded IC50 for CSc1ccc(N(C)c2nc(C)nc3ccn(C)c23)cc1 , which is 6.2

---

Quick list: pIC50 per entry.
System: PC43-10 (RFC)
Experiment: Proliferation inhibition, RFC-expressing PC43-10 cells
Assay type: cell-based, Chinese hamster
Conditions: Table 11
Bear in mind: pIC50 is minus log10 of a mol/L concentration; give just that figure.

pIC50 reading for Nc1nc2[nH]c(CCCNc3ccc(C(=O)N[C@@H](CCC(=O)O)C(=O)O)cc3)cc2c(=O)[nH]1 : 6.17

# evaluate next
Recorded result, Nc1nc(N)c2nc(CNc3ccc(C(=O)N[C@@H](CCCNC(=O)c4ccccc4C(=O)O)C(=O)O)cc3)cnc2n1 , pIC50: 8.89

---

Test system: MDA-MB-435 cancer cells
Test: Antiproliferative effect in MDA-MB-435 cancer cells (SRB assay)
Assay type: cell-based
Settings: Table 3a; unit inferred; read-out: IC50 ± SD in MDA-435 Cells
List of IC50 values.
The reply should contain only the number, in µM.

Recorded result, COc1ccc(N(C)c2ncnc3ccn(C)c23)cc1 , IC50: 0.0134

Reported IC50 ( COc1cccc2cc(N(C)c3nc(C)nc4ccn(C)c34)ccc12 ) = 2

More entries:
In plain terms, COc1cccc2cc(N(C)c3nc(Cl)nc4ccn(C)c34)ccc12 has a documented IC50 of 0.0226

---

Form: system (CAM), quantity (GI50), values below.
Give the quantity in nM, number only.

Answered cases to consult:
Measured on CAM, CSc1ccc(N(C)c2nc(Cl)nc3ccn(C)c23)cc1 [Table 3a 27] has a documented GI50 of 45.2

I looked up CSc1ccc(N(C)c2nc(C)nc3ccn(C)c23)cc1 [Table 3a 26] and its GI50 for CAM was 363

The measured GI50 that COc1ccc(N(C)c2nc(Cl)nc3ccn(C)c23)cc1 [Table 3a 19] showed for CAM is 9.3

Continue with the next compound.
I looked up COc1ccc2c(c1)CCCN2c1nc(Cl)nc2ccn(C)c12 [Table 3a 23] and its GI50 for CAM was 7.6
